In this section we review reported growth values for a set of compounds.
- Tested on: MOLT-4 leukemia
- assayNotes: NCI-60 one-dose screen, 48 h (100 = growth as untreated, 0 = no growth, -100 = all killed)
- measurementParameters: 10 µM unless noted
This is part of a sample that, as a whole, favours compounds with a hit. Of some 83,000 tested, about 20% had one in any assay.
reportedMetric: growth (%)

1. CC/C=C\C[C@H](O)C/C=C1/C(=O)C=C[C@@H]1C/C=C\CCCC(=O)NC(C)C : -17.7
2. COc1ccc(Cl)cc1Nc1nc(C(F)(F)F)ccc1C(=O)N/N=C/c1cccnc1 : 2
3. Cn1c(=O)c2c(ncn2CC[N+](C)(C)C)n(C)c1=O : 104
4. O=C1CCc2c(sc3[nH]c(=S)n(Cc4ccccc4)c(=O)c23)C1 : 28.8
5. COc1ccc(-c2cc(-c3ccc(N(C)C)cc3)nc(NC(=O)c3ccncc3)n2)cc1 : 111
6. CCCCCCCCCCCCCCCCCCNC(=O)[C@H]1CSC(c2ccc(OC)c(F)c2)N1 (stereo not given in full) : 10
7. CCOC(=O)C(C#N)C1CCCCC1 (stereo not given) : 79.3
8. C=C(CN1CCN(c2cccc(C(F)(F)F)n2)CC1)c1ccc(C(=O)Nc2ccccc2N)cc1 : -14.5
9. COc1ccc2nc3cc(Cl)ccc3c(NCCNCC(O)CO)c2c1 (stereo not given) : 12.7
10. COc1cc(OC)c(/C=C/c2cc[n+](C)c3ccccc23)c(OC)c1 : 3.59

###

- System: SNB-19 CNS
- assayNotes: NCI-60 one-dose screen, 48 h (100 = growth as untreated, 0 = no growth, -100 = all killed)
- measurementParameters: 10 µM unless noted
Compounds without any hit were thinned out: in the full panel of roughly 83,000, 20% have a hit.
Binarize growth at 90%; below is Condition met, at or above is Condition not met.

1. COc1ccccc1-c1ccc2c(N)c(C(=O)c3ccc4c(c3)OCO4)sc2n1 : Condition met
2. CN(C)CCCC(=O)Nc1ccc(Cn2nnc3c2C(=O)c2nnn(Cc4ccc(NC(=O)CCCN(C)C)cc4)c2C3=O)cc1 : Condition met
3. CC(C)(C)n1cc(-c2ccnc(NCCCNS(=O)(=O)c3cccc4ccccc34)c2)c(-c2cccc(O)c2)n1 : Condition met
4. COc1ccc(/C=C2\N=C3SC=C(N)N3C2=O)cc1 : Condition met
5. COc1ncc(-c2ccc3ncnc(Nc4cccc(Cl)c4)c3c2)cc1NS(C)(=O)=O : Condition met
6. CCCCCCCCCC(=O)Oc1ccc(/C(=C(/C)Cc2cccc(OC)c2)c2ccc(OCCN(C)C)cc2)cc1 : Condition not met
7. O=S(=O)(Nc1ccc(F)c(Cl)c1)c1ccc(-c2cnc(C3CC3)o2)cc1 : Condition met
8. O=C1C[C@H](N2C(=O)c3ccccc3S2(=O)=O)C2CO[C@@H]1O2 : Condition not met
9. COc1ccc2nc3cc(Cl)ccc3c(N3CCN(c4ccnc(N5CCOCC5)n4)CC3)c2c1 : Condition not met
10. CCCCNc1ccc2c3c1cccc3c(=O)n1c3ccccc3nc21 : Condition not met
11. COc1cc(NCCCCCN=C(N)NC(N)=NC(C)C)c2ncccc2c1 : Condition met
12. COc1cc(-c2c3sc(=O)[nH]c3nc3c2c(=O)[nH]n3C(C)C)cc2c1OCO2 : Condition not met
13. C=C1CC2(OC1=O)C(=O)N(CCCCCCCN1C(=O)C3(CC(=C)C(=O)O3)c3ccccc31)c1ccccc12 (stereo not given) : Condition met
14. COc1cc2cc(COc3nccc(-c4ccc(Cl)cc4)n3)c(=O)[nH]c2cc1OC : Condition met
15. O=C(CO[N+](=O)[O-])Nc1ccc(C(=O)/C=C/c2ccc3c(c2)OCO3)cc1 : Condition not met
16. COc1cc(C2CC(=O)Nc3c2c(C)nn3-c2nc3ccccc3[nH]2)cc(OC)c1OC (stereo not given) : Condition not met
17. O=C1c2c[n+](Cc3ccccc3)ccc2-c2nc3ccccc3c3ccnc1c23 : Condition met
18. CCOC(=O)CC(C)=N : Condition not met

###

- Tested on: SF-268 CNS
- assayNotes: NCI-60 one-dose screen, 48 h
- measurementParameters: 10 µM unless noted
Compounds without any hit were thinned out: in the full panel of roughly 83,000, 20% have a hit. The source made the active and inactive calls. How the source made its calls: active means growth percent below 10; inactive means the rest.
Outcomes: active, inactive

1. c1ccc(-c2nc(N3CCOCC3)c3c4c(sc3n2)CCCCC4)nc1 : inactive
2. c1ccc2c(Nc3cccc4ccccc34)cccc2c1 : inactive
3. CCOC(=O)N1CCN(c2nc(Nc3cc(C)[nH]n3)c3ccccc3n2)CC1 : inactive
4. Cc1ccc2c(c1)O/C(=C\c1cccc(OCC(=O)c3ccccc3)c1)C2=O : inactive
5. C=C1CC[C@@H]2[C@](C)(COC(C)=O)[C@H](OC(C)=O)CC[C@@]2(C)[C@@H]1CC(Nc1ccc(S(=O)(=O)Nc2nc(C)cc(C)n2)cc1)C1=CCOC1=O (stereo partly drawn) : inactive
6. CNC(=S)N/N=C/CSC/C=N/NC(=S)NC : inactive
7. COc1cc(-c2cnc3nonc3n2)c(OC)c2c1OCO2 : inactive
8. O=C(CO[N+](=O)[O-])Nc1ccc(C(=O)/C=C/c2ccc(Cl)cc2)cc1 : inactive
9. COc1ccc(C(=O)c2sc3nc4c(cc3c2N)CCCC4)cc1OC : inactive
10. CN(C)c1ccc(/C=C(\C#N)c2nc3ccccc3s2)cc1 : inactive
11. Cc1cc(N/N=C/c2nc(-c3ccc(Cl)cc3)oc2C)c2cc(Cl)ccc2n1 : inactive
12. CN[C@@]12CC3(C=CC(=O)C=C3)O[C@]1(Cc1ccc(OC)cc1)N(C)C(=O)N2 : inactive
13. Cc1cc(OCc2ccc(C(F)(F)F)cc2)c2c(c1)C(=O)C=C(NCCN1CCCC1)C2=O : inactive
14. Cc1ccc2c(NCCCN(C)C)c3c(C)nn(C)c3nc2c1 : inactive
15. NC(=S)N/N=C/c1cc(-c2cccc(N)c2)ccn1 : inactive
16. CCN(CC)c1ccc(/C=C/C2=[N+](C)c3ccccc3C2(C)C)cc1 : inactive
17. O=C1CC(c2nc3ccccc3[nH]2)CN1C1CCCCC1 (stereo not drawn) : inactive
18. CCCN(CCC)CN(CCC)CCC : inactive
19. CCCCCCCCSC1=CC(=O)C(OC)=C(OC)C1=O : inactive
20. CCCCCCCCCCNC(=O)CCl : inactive
21. Cc1ccc2c(c1)C(=O)/C(=C/c1ccc(OCC(=O)c3ccccc3)cc1)O2 : inactive
22. C=CC[N+]1(CCO)CCN=C1CCCCCCCCCCCCC (stereo not drawn) : active
23. CCOC(=O)CC(C)=N : inactive

###

- Tested on: UO-31 renal
- assayNotes: NCI-60 one-dose screen, 48 h (100 = growth as untreated, 0 = no growth, -100 = all killed)
- measurementParameters: 10 µM unless noted
Compounds without any hit were thinned out: in the full panel of roughly 83,000, 20% have a hit.
In this section we review reported growth values for a set of compounds.
reportedMetric: growth (%)

1) COc1ccc(-c2nn(-c3ccccc3)cc2/C=C/C(=O)OCc2cn(-c3ccc(F)c(Cl)c3)nn2)cc1 : 43
2) O=C(/C=C\c1ccc2ccccc2n1)c1cc(Cl)ccc1O : 65.2
3) NS(=O)(=O)c1ccc(Nc2nc3n[nH]c(Nc4ccccc4)c3c(=O)[nH]2)cc1 : 74.9
4) COc1ccc(/C=C2\N=C3Sc4cc(Cl)ccc4C(=O)N3C2=O)cc1 : 65
5) CCN(CC)Cc1cc(Nc2c3ccccc3nc3cc(Cl)ccc23)ccc1O : -72.9
6) COc1ccc(C(=O)/C=C/c2c[n+](=O)c3ccc(F)cc3n2[O-])cc1 : 87.8
7) CC#Cc1nc2ccccc2c(=O)[nH]1 : 22.9
8) c1ccc2c(Nc3cccc4ccccc34)cccc2c1 : 41.3
9) O=C(O)c1cn(C2CC2)c2cc(N3CCN(Cc4nc5c(cnn5-c5ccc([N+](=O)[O-])cc5)c(=O)[nH]4)CC3)c(F)cc2c1=O : 71.8
10) O=[N+]([O-])c1c(F)cccc1Nc1cccc(F)c1 : 78.3
11) O=C(NCc1cccc(C(F)(F)F)c1)[C@H](CCC(=O)N1CCN(C2CCCCC2)CC1)N1C(=O)[C@@H](N2C(=O)OC[C@@H]2c2ccccc2)[C@H]1/C(Cl)=C/c1ccccc1 : 27.5
12) CCOC(=O)C12CCCC1=CC(=O)CC2 (stereo not given) : 85.3
13) O=C(/C=C/c1ccc(Cl)cc1)c1ccc(O)c(CN2CCN(c3cc4c(cc3F)c(=O)c(C(=O)O)cn4C3CC3)CC2)c1 : 33.4
14) COc1ccc(S(=O)(=O)NCCNc2nccc(-c3c(-c4cccc(N)c4)nc4sccn34)n2)cc1 : 83.2
15) NC1=CSC2=N/C(=C\c3ccc(Cl)cc3)C(=O)N12 : 58.2
16) CCN(CC)CC(O)CNc1c2ccc([N+](=O)[O-])cc2nc2cc(OC)c(OC)cc12 (stereo not given) : 4.89
17) CNC(=O)c1cc(Oc2ccc3nc(NC(=O)Nc4ccc(CN5CCOCC5)c(C(F)(F)F)c4)sc3c2)ccn1 : 26.6
18) Cc1ccc(S(=O)(=O)N(CCc2ccc(Cl)cc2)S(=O)(=O)c2ccc(C)cc2)cc1 : 70
19) OC(c1cccc(C(F)(F)F)c1)c1cnccc1NC1CCCCCC1 (stereo not given) : 28.7
20) Cc1ccc(Nc2nc(N)nc(Nc3ccc4ccccc4c3)n2)cc1 : 46.4

Measured values drawn from PubChem BioAssay (NCI) for this set.
